Source of measurements: paper PMC7321403

# MEASUREMENT NOTES: in vitro
# TEST CONDITIONS: mouse
READOUT NAME: IC50 at 72 h

IC50 at 72 h recorded for this compound, CCOP(=O)(OCC)c1c(-c2ccccc2)nnn1Cc1ccc(C)cc1 , is > 30 µM

IC50 at 72 h reported for this compound CCOP(=O)(OCC)c1c(-c2ccccc2)nnn1Cc1ccccc1 : > 30 µM

Looking up COP(=O)(OC)c1c(-c2ccccc2)nnn1Cc1ccccc1 , I found its IC50 at 72 h recorded as > 30 µM

Lab book: IC50 at 72 h of CCCCCCCCn1nnc(-c2ccccc2)c1P(=O)(OC)OC noted as > 30 µM

Briefly, IC50 at 72 h measured for COP(=O)(OC)c1c(-c2ccccc2)nnn1Cc1ccc(C)cc1 : 19.8 µM

Just so you know, measured IC50 at 72 h for CCCCCCCCn1nnc(-c2ccccc2)c1P(=O)(OCC)OCC came out at > 30 µM

IC50 at 72 h measured on COc1cccc2c1C(=O)c1c(O)c3c(c(O)c1C2=O)C[C@@](O)(C(=O)CO)C[C@@H]3O[C@H]1C[C@H](N)[C@H](O)[C@H](C)O1 [Doxorubicin, reference compound] = 5.65 µM
